- tested.system: CCR1 (Homo sapiens)
- assay.protocol: calcium flux in CCR1 transfected cells, Method B (Calcium 4 dye, HAMAMATSU FDSS6000)
- Assay type: cell-based
- study.conditions: cells stably expressing recombinant CCR1 and G-alpha-16, MIP-1alpha at EC80
pIC50: −log10 of the molar value.
metric.name: pIC50

# annotated cases, reported pIC50 shown
- CCC[C@H](NC(=O)N1CC(C(=O)OCC)Cc2c1cnn2-c1ccc(F)cc1)c1ccnc(S(C)(=O)=O)c1 (stereo partly shown) [Example 114]: 9.15
- CC[C@H](NC(=O)N1CCCc2c1cnn2-c1ccc(F)cc1)c1cncc(Br)c1 [Example 42]: 9.70
- CC[C@H](NC(=O)N1c2cnn(-c3ccc(F)cc3)c2CCC1C(F)(F)F)c1ccc(OC)c(S(C)(=O)=O)c1 (stereo partly shown) [Example 82]: 7.64
- O=C(NCc1ccc(Cl)cc1Cl)N1CCCc2c1cnn2-c1ccc(F)cc1 [Example 16]: 7.92
- CC1CCc2c(cnn2-c2ccc(F)cc2)N1C(=O)NCc1ccnc(S(C)(=O)=O)c1 (stereo not shown) [Example 53]: 5.89

[P] CCC[C@H](NC(=O)N1CC(C(F)(F)F)Cc2c1cnn2-c1ccc(F)cc1)c1ccnc(S(C)(=O)=O)c1 (stereo partly shown) [Example 79]
[Q] C[C@H](NC(=O)N1CC(C(F)(F)F)Cc2c1cnn2-c1ccc(F)cc1)c1ccnc(S(C)(=O)=O)c1 (stereo partly shown) [Example 83]
Q) For this pair, P and Q , which shows a numerically higher pIC50? Please reply using the label of the selected record.
A) P

[P] CS(=O)(=O)c1ccc(CNC(=O)N2CCCc3c2cnn3-c2ccc(F)cc2)cn1 [Example 30]
[Q] CCC[C@H](NC(=O)N1CCc2c1cnn2-c1ccc(F)cc1)c1ccnc(S(C)(=O)=O)c1 [Example 87]
[R] O=C(NCc1ccc(F)cc1)N1CCCc2c1cnn2-c1ccc(F)cc1 [Example 7]
Q) Sort entries by pIC50 from minimum to maximum value. Your reply should list the labels following the order given in the request.
A) R, P, Q
(R: 6.74, P: 7.03, Q: 8.00)

[P] CCC[C@H](NC(=O)N1CC(C(F)(F)F)Cc2c1cnn2-c1ccc(F)cc1)c1ccnc(S(C)(=O)=O)c1 (stereo partly shown) [Example 78]
[Q] CC[C@H](NC(=O)N1c2cnn(-c3ccc(F)cc3)c2CCC1C(F)(F)F)c1ccnc(S(C)(=O)=O)c1 (stereo partly shown) [Example 58]
[R] CCC[C@H](NC(=O)N1CCCCc2c1cnn2-c1ccc(F)cc1)c1ccnc(S(C)(=O)=O)c1 [Example 72]
[S] CCC[C@H](NC(=O)N1c2cnn(-c3ccc(F)cc3)c2CCC1C(F)(F)F)c1ccc(S(C)(=O)=O)c(O)c1 (stereo partly shown) [Example 106]
Q) Sort entries by pIC50 from minimum to maximum value. Your reply should list the labels following the order given in the request.
A) R, Q, S, P

[a] O=C(NCc1ccccc1)N1CCCc2c1cnn2-c1ccc(F)cc1 [Example 19]
[b] CCC[C@H](NC(=O)N1c2cnn(-c3ccc(F)cc3)c2CCC1C)c1ccnc(S(C)(=O)=O)c1 (stereo partly shown) [Example 70]
Q) Between item a and item b , which reported pIC50 is smaller? Please reply using the label of the selected record.
A) a
(a: 6.40, b: 8.30)

[a] CCC[C@H](NC(=O)N1c2cnn(-c3ccc(F)cc3)c2CCC1C(F)(F)F)c1ccc(Br)c(OC)c1 (stereo partly shown) [Example 104]
[b] O=C(NCc1ccccc1F)N1CCCc2c1cnn2-c1ccc(F)cc1 [Example 8]
[c] COc1ccc([C@H](C)NC(=O)N2CCCc3c2cnn3-c2ccc(F)cc2)cc1 [Example 14]
Q) Sequence the entries by pIC50, beginning with the highest number. Your reply should list the labels following the order given in the request.
A) a, c, b
(a: 7.24, c: 6.99, b: 6.58)

[I] C[C@@H](NC(=O)N1CCCc2c1cnn2-c1ccc(F)cc1)c1ccccc1 [Example 6]
[II] CCC[C@H](NC(=O)N1c2cnn(-c3ccc(F)cc3)c2CCC1C(F)(F)F)c1ccc(Br)cc1F (stereo partly shown) [Example 68]
[III] CCC[C@H](NC(=O)N1c2cnn(-c3ccc(F)cc3)c2CCC1C(F)(F)F)c1cccc(S(C)(=O)=O)n1 (stereo partly shown) [Example 94]
[IV] CCC[C@H](NC(=O)N1c2cnn(-c3ccc(F)cc3)c2CCC1C(F)(F)F)c1ccnc(S(C)(=O)=O)c1 (single isomer, unassigned) [Example 56]
[V] CCC[C@H](NC(=O)N1CCCc2c1cnn2-c1ccc(F)cc1)c1cncc(Br)c1 [Example 46]
Q) Sequence the entries by pIC50, beginning with the highest number. Your reply should list the labels following the order given in the request.
A) V, IV, III, I, II
(V: 9.70, IV: 8.22, III: 7.24, I: 6.90, II: 6.69)

[P] COc1cccc(CNC(=O)N2CCCc3c2cnn3-c2ccc(F)cc2)c1 [Example 20]
[Q] CCC[C@H](NC(=O)N1CCCc2c1c(C)nn2-c1ccc(F)cc1)c1ccnc(S(C)(=O)=O)c1 [Example 98]
Q) For this pair, P and Q , which shows a numerically higher pIC50? Please reply using the label of the selected record.
A) P

[A] Cc1cccc(CNC(=O)N2CCCc3c2cnn3-c2ccc(F)cc2)c1 [Example 18]
[B] CCC[C@H](NC(=O)N1CCc2c1cnn2-c1ccc(F)cc1)c1ccnc(C)c1 [Example 88]
Q) For this pair, A and B , which shows a numerically higher pIC50? Please reply using the label of the selected record.
A) B
(B: 7.28, A: 6.88)

====

- tested.system: CCR1 (Homo sapiens, UniProt P32246)
- Sequence (P32246 1-355): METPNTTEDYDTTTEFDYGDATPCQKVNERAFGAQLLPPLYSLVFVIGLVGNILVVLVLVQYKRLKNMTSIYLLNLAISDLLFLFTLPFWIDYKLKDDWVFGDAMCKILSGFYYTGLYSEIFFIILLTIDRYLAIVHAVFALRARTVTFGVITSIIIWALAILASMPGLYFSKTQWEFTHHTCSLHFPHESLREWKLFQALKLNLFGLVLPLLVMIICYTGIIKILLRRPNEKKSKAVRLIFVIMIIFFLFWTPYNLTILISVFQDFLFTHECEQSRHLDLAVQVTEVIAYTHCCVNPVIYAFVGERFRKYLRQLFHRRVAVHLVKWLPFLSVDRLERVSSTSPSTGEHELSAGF
- assay.protocol: calcium flux in CCR1 transfected cells, Method B (Calcium 4 dye, HAMAMATSU FDSS6000)
- Assay type: cell-based
- study.conditions: cells stably expressing recombinant CCR1 and G-alpha-16, MIP-1alpha at EC80
pIC50: −log10 of the molar value.
metric.name: pIC50

# annotated cases, reported pIC50 shown
* Cc1ccccc1CNC(=O)N1CCCc2c1cnn2-c1ccc(F)cc1 [Example 4] | 6.55
* COc1ccccc1CNC(=O)N1CCCc2c1cnn2-c1ccc(F)cc1 [Example 11] | 6.21
* CCC[C@H](NC(=O)N1CCCc2c1c(C)nn2-c1ccc(F)cc1)c1cncc(S(C)(=O)=O)c1 [Example 99] | 5.82
* Cc1ccc(CNC(=O)N2CCCc3c2cnn3-c2ccc(F)cc2)cc1 [Example 5] | 7.05

[P] CCC[C@H](NC(=O)N1CCCc2c1cnn2-c1ccc(F)cc1)c1ccc(S(C)(=O)=O)nc1 [Example 50]
[Q] COc1ccc(CNC(=O)N2CCCc3c2cnn3-c2ccc(F)cc2)cc1 [Example 10]
[R] CC[C@H](NC(=O)N1CCc2c1cnn2-c1ccc(F)cc1)c1cccc(S(C)(=O)=O)c1 [Example 89]
[S] CC[C@H](NC(=O)N1c2cnn(-c3ccc(F)cc3)c2CCC1C)c1ccnc(S(C)(=O)=O)c1 (some centres unmarked) [Example 55]
[T] O=C(NCCc1ccccc1)N1CCCc2c1cnn2-c1ccc(F)cc1 [Example 3]
Q) Sort entries by pIC50 from minimum to maximum value. Your reply should list the labels following the order given in the request.
A) Q, T, R, S, P

[P] CCC[C@H](NC(=O)N1CCCc2c1cnn2-c1c(F)cc(F)cc1F)c1ccnc(S(C)(=O)=O)c1 [Example 63]
[Q] O=C(NCc1ccc(Cl)cc1)N1CCCc2c1cnn2-c1ccc(F)cc1 [Example 13]
[R] CCC[C@H](NC(=O)N1CC(C(=O)NC)Cc2c1cnn2-c1ccc(F)cc1)c1ccnc(S(C)(=O)=O)c1 (some centres unmarked) [Example 116]
[S] CCC[C@H](NC(=O)N1CCCc2c1cnn2C1CCCC1)c1ccnc(S(C)(=O)=O)c1 [Example 67]
Q) Sort entries by pIC50 from minimum to maximum value. Your reply should list the labels following the order given in the request.
A) S, Q, P, R
(S: 6.71, Q: 7.35, P: 7.85, R: 9.00)

[P] CS(=O)(=O)c1ccc(CNC(=O)N2CCCc3c2cnn3-c2ccc(F)cc2)cc1 [Example 25]
[Q] CNS(=O)(=O)c1ccc(CNC(=O)N2CCCc3c2cnn3-c2ccc(F)cc2)c(Cl)c1 [Example 31]
Q) Between item P and item Q , which reported pIC50 is smaller? Please reply using the label of the selected record.
A) P
(P: 7.19, Q: 9.00)

[a] O=C(NCc1ccc(S(=O)(=O)NC2CCOCC2)cc1)N1CCCc2c1cnn2-c1ccc(F)cc1 [Example 28]
[b] CNS(=O)(=O)c1cccc(CNC(=O)N2CCCc3c2cnn3-c2ccc(F)cc2)c1 [Example 29]
Q) For this pair, a and b , which shows a numerically higher pIC50? Please reply using the label of the selected record.
A) a
